Just for reference, PubChem BioAssay AID1085 is where these values come from.

Quick list: inhibition per entry.
target: Glycoprotein 42 (Epstein-Barr virus (strain AG876)) (UniProt Q1HVG2); assay: EBV glycoprotein 42 binding blockers – biochemical, uHTS, fluorescence polarization, primary screen (AID 1085); settings: Fluorescence polarization binding assay, mP read-out; stronger effect = higher value; tested at 21.74 µM
Sequence (Q1HVG2 whole entry, looked up): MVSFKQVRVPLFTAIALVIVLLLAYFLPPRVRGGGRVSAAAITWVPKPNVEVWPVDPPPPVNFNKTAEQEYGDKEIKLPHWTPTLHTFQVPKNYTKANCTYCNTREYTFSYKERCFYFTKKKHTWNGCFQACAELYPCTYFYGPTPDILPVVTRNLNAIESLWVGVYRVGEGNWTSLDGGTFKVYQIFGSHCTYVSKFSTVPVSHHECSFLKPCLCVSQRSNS
The campaign covered roughly 220,000 compounds. About 930 (0.42%) were called active. For the sample, actives were picked, then their nearest neighbours and some compounds at random.
measurement.type: inhibition (%)

[
  {
    "compound": "Cc1cc(C)n2nc(C(=O)N3CCN(Cc4ccc5c(c4)OCO5)CC3)nc2n1",
    "measurement.type": "inhibition",
    "measurement": -5.29
  },
  {
    "compound": "O=C1c2ccccc2-c2ncnc3c(N4CCOCC4)cc(N4CCOCC4)c1c23",
    "measurement.type": "inhibition",
    "measurement": 51.8
  },
  {
    "compound": "CCOC(=O)C(C)n1nc(-c2ccccc2)c2ccccc2c1=O (stereo unspecified)",
    "measurement.type": "inhibition",
    "measurement": -6.93
  },
  {
    "compound": "CC(=O)Nc1ccc(NC(=O)c2sc3nc4c(c(-c5ccc(C)cc5)c3c2N)CCC4)cc1",
    "measurement.type": "inhibition",
    "measurement": -13.2
  },
  {
    "compound": "Cc1sc2nc(CC(N)=O)[nH]c(=O)c2c1-c1ccccc1",
    "measurement.type": "inhibition",
    "measurement": -7.12
  },
  {
    "compound": "CCN(CC)C(=O)Oc1ccc(Br)cc1C(=O)Nc1ccc(F)c(Cl)c1",
    "measurement.type": "inhibition",
    "measurement": -10.6
  },
  {
    "compound": "CCOC(=O)/C(C#N)=C/c1ccc(N2CCCCC2)cc1",
    "measurement.type": "inhibition",
    "measurement": -25.7
  },
  {
    "compound": "O=c1[nH]c2c(c(=O)n1Cc1ccccc1)CCC2",
    "measurement.type": "inhibition",
    "measurement": -9.97
  },
  {
    "compound": "O=C(Cc1ccc(Br)cc1)N1CCN(c2ccccn2)CC1",
    "measurement.type": "inhibition",
    "measurement": 4.9
  },
  {
    "compound": "O=C(C1=C(O)C(=O)N(CCOCCO)C1c1ccccn1)c1cccs1 (stereo unspecified)",
    "measurement.type": "inhibition",
    "measurement": -10.3
  },
  {
    "compound": "O=C(C1=C(O)C(=O)N(Cc2ccccc2)C1c1ccco1)c1ccco1 (stereo unspecified)",
    "measurement.type": "inhibition",
    "measurement": -8.71
  },
  {
    "compound": "Cc1ccccc1N1C(=O)C(Oc2ccc(Cl)cc2)C1CNCC1CCCO1 (stereo unspecified)",
    "measurement.type": "inhibition",
    "measurement": -2.06
  },
  {
    "compound": "CCO[C@H]1OC(C(=O)N2CCOCC2)=C[C@@H](c2ccc3c(c2)OCO3)[C@@H]1CCCO",
    "measurement.type": "inhibition",
    "measurement": -9.61
  },
  {
    "compound": "Cc1cccc(NC(=O)c2sc3nc4c(c(-c5ccco5)c3c2N)CCC4)c1",
    "measurement.type": "inhibition",
    "measurement": -22.7
  },
  {
    "compound": "CCOC(=O)/C(C#N)=C/c1ccc(N2CCN(Cc3ccccc3)CC2)cc1",
    "measurement.type": "inhibition",
    "measurement": 128
  },
  {
    "compound": "CC(=O)c1ccc(-c2ccc(Cn3c(C)nc4cc(N)c(C)nc43)cc2)cc1",
    "measurement.type": "inhibition",
    "measurement": 2.98
  },
  {
    "compound": "CCO[C@H]1OC(C(=O)N2CCCCCCC2)=C[C@@H](c2ccc(C(F)(F)F)cc2)[C@@H]1CCCO",
    "measurement.type": "inhibition",
    "measurement": 116
  },
  {
    "compound": "O=C(C1=C(O)C(=O)N(c2ncccn2)C1c1cccs1)c1ccco1 (stereo unspecified)",
    "measurement.type": "inhibition",
    "measurement": 65.7
  },
  {
    "compound": "COc1ccc(N2CCN(C(=O)/C(C#N)=C/c3ccccc3)CC2)cc1",
    "measurement.type": "inhibition",
    "measurement": -19
  },
  {
    "compound": "COc1ccc(-c2nc(CS(=O)CC(=O)N3CCc4ccccc4C3)c(C)o2)cc1 (stereo unspecified)",
    "measurement.type": "inhibition",
    "measurement": -1.18
  },
  {
    "compound": "C/C(=N/NC(=O)CN1CCN(S(=O)(=O)c2ccc(Br)cc2)CC1)c1ccncc1",
    "measurement.type": "inhibition",
    "measurement": -10.4
  }
]
